Source: paper PMC2233905

- measured_on: hEag1 channels (Homo sapiens)
- Sequence (O95259 1-989): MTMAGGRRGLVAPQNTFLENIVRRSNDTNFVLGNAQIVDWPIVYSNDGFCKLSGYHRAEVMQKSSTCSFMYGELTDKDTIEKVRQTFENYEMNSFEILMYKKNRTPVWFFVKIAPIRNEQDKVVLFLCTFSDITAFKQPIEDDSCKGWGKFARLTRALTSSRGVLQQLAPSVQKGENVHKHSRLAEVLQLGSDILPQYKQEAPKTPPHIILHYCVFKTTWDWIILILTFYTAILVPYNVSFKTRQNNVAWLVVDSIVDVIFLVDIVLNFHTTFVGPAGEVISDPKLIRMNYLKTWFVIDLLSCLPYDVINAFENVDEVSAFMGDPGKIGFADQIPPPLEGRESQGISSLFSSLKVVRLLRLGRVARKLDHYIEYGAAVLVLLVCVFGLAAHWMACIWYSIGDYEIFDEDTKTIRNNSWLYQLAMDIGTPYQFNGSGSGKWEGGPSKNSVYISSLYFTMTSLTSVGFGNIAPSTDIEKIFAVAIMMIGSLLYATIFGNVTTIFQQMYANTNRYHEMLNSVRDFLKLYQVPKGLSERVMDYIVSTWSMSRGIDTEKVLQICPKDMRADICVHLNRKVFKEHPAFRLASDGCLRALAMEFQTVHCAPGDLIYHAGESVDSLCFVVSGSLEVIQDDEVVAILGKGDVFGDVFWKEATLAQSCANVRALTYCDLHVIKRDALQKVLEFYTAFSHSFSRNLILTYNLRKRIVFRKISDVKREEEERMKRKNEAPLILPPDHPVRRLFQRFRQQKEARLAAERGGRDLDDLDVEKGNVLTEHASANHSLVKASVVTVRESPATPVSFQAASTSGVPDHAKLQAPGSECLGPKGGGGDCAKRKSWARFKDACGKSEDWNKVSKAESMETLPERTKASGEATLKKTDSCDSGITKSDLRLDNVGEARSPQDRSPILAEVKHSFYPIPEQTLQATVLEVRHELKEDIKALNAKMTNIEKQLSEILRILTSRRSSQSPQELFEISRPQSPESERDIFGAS
- assay_text: Whole-cell patch-clamp of hEag1 currents in stably transfected HEK-293 cells
- Type: cell-based
- measurement_parameters: IC50, whole-cell, pHext//pHint 7.4//6.4
measurement_label: pIC50
A value of pIC50 is the negative decimal logarithm of a concentration given in moles per litre.

Incoming: Return the recorded pIC50 value; entry: COc1ccc(CCN2CCC(Nc3nc4ccccc4n3Cc3ccc(F)cc3)CC2)cc1
Outgoing: 7.27

* * *

- measured_on: hEag1 channels (Homo sapiens, UniProt O95259)
- assay_text: Whole-cell patch-clamp of hEag1 currents in stably transfected HEK-293 cells
- Type: cell-based
- measurement_parameters: IC50, whole-cell, pHext//pHint 6.4//7.35
measurement_label: pIC50
A value of pIC50 is the negative decimal logarithm of a concentration given in moles per litre.

Incoming: Return the recorded pIC50 value; entry: COc1ccc(CCN2CCC(Nc3nc4ccccc4n3Cc3ccc(F)cc3)CC2)cc1
Outgoing: 6.38

* * *

- measured_on: hEag2 channels (Homo sapiens, UniProt Q8NCM2)
- Sequence (Q8NCM2 whole entry): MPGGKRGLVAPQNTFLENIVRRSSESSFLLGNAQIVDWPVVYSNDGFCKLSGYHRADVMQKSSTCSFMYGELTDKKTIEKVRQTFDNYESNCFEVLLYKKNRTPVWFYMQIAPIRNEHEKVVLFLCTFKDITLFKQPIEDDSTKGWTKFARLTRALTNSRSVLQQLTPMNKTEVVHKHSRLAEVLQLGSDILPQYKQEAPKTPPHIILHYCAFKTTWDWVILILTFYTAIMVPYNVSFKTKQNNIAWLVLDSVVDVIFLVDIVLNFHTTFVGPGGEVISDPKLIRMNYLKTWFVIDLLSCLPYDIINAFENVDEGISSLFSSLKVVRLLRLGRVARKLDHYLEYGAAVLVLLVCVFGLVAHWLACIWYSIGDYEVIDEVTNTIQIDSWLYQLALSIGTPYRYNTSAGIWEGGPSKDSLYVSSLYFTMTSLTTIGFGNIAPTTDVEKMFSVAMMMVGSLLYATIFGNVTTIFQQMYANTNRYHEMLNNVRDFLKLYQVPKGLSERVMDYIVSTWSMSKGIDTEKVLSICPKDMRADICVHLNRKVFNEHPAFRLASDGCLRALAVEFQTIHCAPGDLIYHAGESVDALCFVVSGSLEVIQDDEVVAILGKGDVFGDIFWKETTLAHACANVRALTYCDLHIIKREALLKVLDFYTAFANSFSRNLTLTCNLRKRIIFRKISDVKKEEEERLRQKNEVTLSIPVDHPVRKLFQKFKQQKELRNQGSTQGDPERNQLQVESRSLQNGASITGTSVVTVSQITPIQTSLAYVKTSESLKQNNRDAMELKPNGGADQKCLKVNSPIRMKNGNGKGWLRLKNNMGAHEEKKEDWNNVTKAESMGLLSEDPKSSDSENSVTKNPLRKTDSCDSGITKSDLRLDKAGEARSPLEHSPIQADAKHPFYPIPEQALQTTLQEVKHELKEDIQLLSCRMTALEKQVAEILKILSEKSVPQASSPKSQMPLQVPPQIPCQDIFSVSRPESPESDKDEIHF
- assay_text: hEag2 channels expressed in Xenopus oocytes
pIC50: −log10 of the molar value.
measurement_label: pIC50

Incoming: Return the recorded pIC50 value; entry: COc1ccc(CCN2CCC(Nc3nc4ccccc4n3Cc3ccc(F)cc3)CC2)cc1 [astemizole]
Outgoing: ~5.82
